# assay_target: human recombinant HDAC1 (Homo sapiens, UniProt Q13547)
# Sequence (Q13547 whole entry): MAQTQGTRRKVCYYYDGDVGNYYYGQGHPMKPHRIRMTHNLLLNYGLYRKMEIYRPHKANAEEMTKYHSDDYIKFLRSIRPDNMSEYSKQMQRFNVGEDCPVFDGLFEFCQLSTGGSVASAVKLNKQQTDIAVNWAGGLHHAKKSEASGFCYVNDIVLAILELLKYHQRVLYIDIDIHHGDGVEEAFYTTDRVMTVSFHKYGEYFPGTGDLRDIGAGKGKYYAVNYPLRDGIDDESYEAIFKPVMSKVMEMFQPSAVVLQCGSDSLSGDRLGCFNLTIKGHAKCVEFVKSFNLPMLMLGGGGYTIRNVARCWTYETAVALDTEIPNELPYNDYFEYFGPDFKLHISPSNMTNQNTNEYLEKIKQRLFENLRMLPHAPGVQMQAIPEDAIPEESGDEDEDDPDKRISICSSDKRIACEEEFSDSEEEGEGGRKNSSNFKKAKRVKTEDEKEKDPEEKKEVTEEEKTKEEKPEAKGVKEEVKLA
# assay_method_text: HDAC activity assay, recombinant HDAC1
pIC50: −log10 of the molar value.
property_measured: pIC50

A: O=C(CCCCCNC(=O)c1c(-c2ccc(O)cc2)sc2cc(O)ccc12)NO [8a]
B: O=C(CCCCn1cc(-c2ccc(C(=O)c3c(-c4ccc(O)cc4)sc4cc(O)ccc34)cc2)nn1)NO [15a]
Ask | Looking only at measured pIC50, which entry is lower, A or B ? Response format: the label of the selected entry.
Reply | B
(B: 5.08, A: 6.22)

Reference for the values: paper PMC3962780
